These measurements were taken from the RNAGym collection of RNA variant scans (doi:10.1038/nmeth.2970).

B1: NELF-E aptamer (parent)
chain: CCCAACGACUGCCGAGCGAGAUUACGCUUGAGCGCCCCACUGAGGAUGCCCACGGGCGAUUGGGGCACGG

# Variants of: B1
# assay-comment: HiTS-RAP
# test-settings: with NELF-E (Drosophila)
property-name: log10(Kd) (log10 of the value in nM)
For clarity, the numbers are log10 values of Kd expressed in nM.

• C6U A15U = 0.80
• C9G A31G = 0.90
• A8C U29G = 0.92
• G18A A19G = 0.73

variant C9G U23C , log10(Kd) observed: 0.64

Item: G64U | log10(Kd): 0.86

So, C51G ? Its log10(Kd) was 0.65
